biological target: IRAK4 (Homo sapiens, UniProt Q9NWZ3); assay: OCI-LY-10 degradation assay (western blot, % IRAK4 degraded after 4 hours); type: cell-based; parameters: endogenous in cells; host or cells: OCI-LY10; settings: OCI-LY10 cells, 4 hours, 1 uM compound
Sequence (Q9NWZ3 whole entry): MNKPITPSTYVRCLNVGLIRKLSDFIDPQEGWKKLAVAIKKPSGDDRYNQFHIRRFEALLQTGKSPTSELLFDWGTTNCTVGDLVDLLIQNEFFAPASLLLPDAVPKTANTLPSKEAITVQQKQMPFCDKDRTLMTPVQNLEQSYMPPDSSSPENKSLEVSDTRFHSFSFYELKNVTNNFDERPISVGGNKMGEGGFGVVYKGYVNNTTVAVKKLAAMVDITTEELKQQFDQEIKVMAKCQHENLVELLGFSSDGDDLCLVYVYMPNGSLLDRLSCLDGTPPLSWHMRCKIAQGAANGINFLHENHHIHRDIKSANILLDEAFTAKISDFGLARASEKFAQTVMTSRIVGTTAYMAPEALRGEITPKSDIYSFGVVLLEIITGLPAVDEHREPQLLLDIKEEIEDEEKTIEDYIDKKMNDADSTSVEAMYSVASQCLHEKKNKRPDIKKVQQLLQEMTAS
ATTRIBUTE_MEASURED: OCI-LY10 % IRAK4 Degradation (1 uM)

COMPOUND: NC(=O)c1nn(-c2ccc(CNCCCCCOCCCc3cccc4c3C(=O)N(C3CCC(=O)NC3=O)C4=O)cc2)cc1NC(=O)c1coc(-c2ccnc(NCC3CC3)c2)n1 (centres unmarked)
OCI-LY10 % IRAK4 Degradation (1 uM): A (>50% degradation)

COMPOUND: O=C1CCC(N2C(=O)c3cccc(NCCOCCOCCOCC(=O)N4C[C@H](O)C[C@H]4C(=O)NCc4ccc(-n5cc(NC(=O)c6coc(-c7ccnc(NCC8CC8)c7)n6)c(C(F)F)n5)cc4)c3C2=O)C(=O)N1 (some centres unmarked)
OCI-LY10 % IRAK4 Degradation (1 uM): B (>20-50% degradation)

COMPOUND: O=C1CCC(N2C(=O)c3cccc(NCCOCCN4CC5(CN(CCOCCNCc6ccc(-n7cc(NC(=O)c8coc(-c9ccnc(NCC%10CC%10)c9)n8)c(C(F)F)n7)cc6)C5)C4)c3C2=O)C(=O)N1 (centres unmarked)
OCI-LY10 % IRAK4 Degradation (1 uM): B (>20-50% degradation)

COMPOUND: O=C1CCC(N2C(=O)c3cccc(OCc4cn(CCOCCOCCNCc5ccc(-n6cc(NC(=O)c7coc(-c8ccnc(NCC9CC9)c8)n7)c(C(F)F)n6)cc5)nn4)c3C2=O)C(=O)N1 (centres unmarked)
OCI-LY10 % IRAK4 Degradation (1 uM): A (>50% degradation)

Note: attention shifts to another entry.
Incoming: What OCI-LY10 % IRAK4 Degradation (1 uM) value was documented for this compound, NC(=O)c1nn(-c2ccc(CNCCOCCOCCOCCOCC#Cc3cccc4c3C(=O)N(C3CCC(=O)NC3=O)C4=O)cc2)cc1NC(=O)c1coc(-c2ccnc(NCC(F)(F)F)c2)n1 (centres unmarked) ?
Outgoing: A (>50% degradation)

The measured values listed here are drawn from patent US10874743B2.
